Test system: MYCN
Test: 3' UTR reporter interaction score (median-centred robust z-score of log2 firefly/Renilla activity); higher = less repression of the 3' UTR reporter
Conditions: HEK293T; 48 h
Decide using 3' UTR reporter interaction score: a value greater than or equal to -0.3 is satisfied, a smaller one is not satisfied.

Biosequence: GUGAGUCUCUAAGAAAAGAGGA
Measured On: MYCN
Class Label: not satisfied
--
Biosequence: UCACAGUGAACCGGUCUCUUUU
Measured On: MYCN
Class Label: satisfied
--
Biosequence: AGGCAGUGUAGUUAGCUGAUUGC
Measured On: MYCN
Class Label: not satisfied
--
Biosequence: GACACGGGCGACAGCUGCGGCCC
Measured On: MYCN
Class Label: satisfied
--
Biosequence: CAUCUUACCGGACAGUGCUGGA
Measured On: MYCN
Class Label: not satisfied
--
Biosequence: CUGGACUUGGAGUCAGAAGGCC
Measured On: MYCN
Class Label: satisfied
--
Biosequence: CGGGUGGAUCACGAUGCAAUUU
Measured On: MYCN
Class Label: satisfied
--
Biosequence: ACUUCACCUGGUCCACUAGCCGU
Measured On: MYCN
Class Label: satisfied
--
Biosequence: CAAAGCGCUUCCCUUUGGAGC
Measured On: MYCN
Class Label: satisfied
--
Biosequence: AAUUGCACGGUAUCCAUCUGUA
Measured On: MYCN
Class Label: satisfied
--
Biosequence: AAUCAUACAGGGACAUCCAGUU
Measured On: MYCN
Class Label: not satisfied
--
Biosequence: AACUGGCCCUCAAAGUCCCGCUUU
Measured On: MYCN
Class Label: not satisfied
--
Biosequence: CAUCUGGAGGUAAGAAGCACUUU
Measured On: MYCN
Class Label: satisfied
--
Biosequence: UUGUGUCAAUAUGCGAUGAUGU
Measured On: MYCN
Class Label: not satisfied
--
Biosequence: UUGUGCUUGAUCUAACCAUGU
Measured On: MYCN
Class Label: not satisfied
--
Biosequence: CAAAGUGCCUCCCUUUAGAGUGU
Measured On: MYCN
Class Label: satisfied
--
Biosequence: AGGAAGCCCUGGAGGGGCUGGAGGU
Measured On: MYCN
Class Label: satisfied
--
Biosequence: GGAGAAAUUAUCCUUGGUGUGU
Measured On: MYCN
Class Label: not satisfied
--
Biosequence: CAAAGAAUUCUCCUUUUGGGCUU
Measured On: MYCN
Class Label: satisfied
--
Biosequence: UCAGUGCACUACAGAACUUUGU
Measured On: MYCN
Class Label: satisfied

---

Tested on: MYCN
Assay: 3' UTR reporter interaction score (median-centred robust z-score of log2 firefly/Renilla activity); higher = less repression of the 3' UTR reporter
Details: HEK293T; 48 h
3' UTR reporter interaction score for assorted sequences

Biosequence: AUCGGGAAUGUCGUGUCCGCC
3' UTR reporter interaction score: -0.166
//
Biosequence: GUGCCUACUGAGCUGAUAUCAGU
3' UTR reporter interaction score: 0.559
//
Biosequence: UCAGUCUCAUCUGCAAAGAAG
3' UTR reporter interaction score: 1.11
//
Biosequence: AUGAUCCAGGAACCUGCCUCU
3' UTR reporter interaction score: 0.642
//
Biosequence: CUCCAGAGGGAUGCACUUUCU
3' UTR reporter interaction score: -0.234
//
Biosequence: GGUAGAUUCUCCUUCUAUGAG
3' UTR reporter interaction score: 0.767
//
Biosequence: UGUCUUGCAGGCCGUCAUGCA
3' UTR reporter interaction score: -0.456
//
Biosequence: AUCACAUUGCCAGGGAUUUCC
3' UTR reporter interaction score: 0.592
//
Biosequence: AGAUCAGAAGGUGAUUGUGGCU
3' UTR reporter interaction score: -0.0131
//
Biosequence: UCCCUGUCCUCCAGGAGCUCA
3' UTR reporter interaction score: 0.194
//
Biosequence: UACAGUAUAGAUGAUGUACUAG
3' UTR reporter interaction score: -0.388
//
Biosequence: AGACCUGGCCCAGACCUCAGC
3' UTR reporter interaction score: 0.863
//
Biosequence: UCCCUGAGACCCUAACUUGUGA
3' UTR reporter interaction score: 0.264
//
Biosequence: AGACCAUGGGUUCUCAUUGU
3' UTR reporter interaction score: 0.149
//
Biosequence: CUCCAGAGGGAAGUACUUUCU
3' UTR reporter interaction score: -0.236
//
Biosequence: AAUAUUAUACAGUCAACCUCU
3' UTR reporter interaction score: 1.48
//
Biosequence: GCUGGGCAGGGCUUCUGAGCUCCUU
3' UTR reporter interaction score: 0.117
//
Biosequence: UGUCACUCGGCUCGGCCCACUAC
3' UTR reporter interaction score: 0.184
//
Biosequence: CAUUGCACUUGUCUCGGUCUGA
3' UTR reporter interaction score: -0.0953
//
Biosequence: ACUGCCCUAAGUGCUCCUUCU
3' UTR reporter interaction score: 1.21
//
Biosequence: GAAGUGUGCCGUGGUGUGUCU
3' UTR reporter interaction score: -0.199
//
Biosequence: UACCCAUUGCAUAUCGGAGUUG
3' UTR reporter interaction score: -0.434
//
Biosequence: GUCCCUCUCCAAAUGUGUCUUG
3' UTR reporter interaction score: 1.77
//
Biosequence: AACGCACUUCCCUUUAGAGUGU
3' UTR reporter interaction score: 0.243
//
Biosequence: UGAAGGUCUACUGUGUGCCAG
3' UTR reporter interaction score: 0.394
//
Biosequence: AAACUACUGAAAAUCAAAGAU
3' UTR reporter interaction score: -0.411
//
Biosequence: UCAGGCUCAGUCCCCUCCCGAU
3' UTR reporter interaction score: -0.567
//
Biosequence: GAGCCAGUUGGACAGGAGC
3' UTR reporter interaction score: 0.298
//
Biosequence: GAUUGCUCUGCGUGCGGAAUCGAC
3' UTR reporter interaction score: -0.19
//
Biosequence: UUCCCUUUGUCAUCCUAUGCCU
3' UTR reporter interaction score: 0.146
//
Biosequence: GUGGCUGCACUCACUUCCUUC
3' UTR reporter interaction score: 1.8
//
Biosequence: AGAUCGACCGUGUUAUAUUCGC
3' UTR reporter interaction score: 0.592
//
Biosequence: AUGUAUAAAUGUAUACACAC
3' UTR reporter interaction score: -0.0355
//
Biosequence: AUCAUAGAGGAAAAUCCACGU
3' UTR reporter interaction score: 0.335
//
Biosequence: GUGCAUUGCUGUUGCAUUGCA
3' UTR reporter interaction score: 0.79
//
Biosequence: UCUUUGGUUAUCUAGCUGUAUGA
3' UTR reporter interaction score: -0.305
//
Biosequence: UAGCACCAUUUGAAAUCGGU
3' UTR reporter interaction score: -3.2
//
Biosequence: UCUAGUAAGAGUGGCAGUCG
3' UTR reporter interaction score: -0.229
//
Biosequence: UUCAACGGGUAUUUAUUGAGCA
3' UTR reporter interaction score: 0.423
//
Biosequence: CAUCCCUUGCAUGGUGGAGGGU
3' UTR reporter interaction score: 1.03
//
Biosequence: AGCUACAUCUGGCUACUGGGUCUC
3' UTR reporter interaction score: 1.39

Origin of measurements: the supplement of paper PMC5844555
